experiment: Anticancer human tumor 997537-175-T-J1-PDC patient-derived colon adenocarcinoma cell line growth inhibition [POLQ]; conditions: 997537-175-T-J1-PDC complex spheroid viability, combination with POLQ inhibitors; second compound 0.1 µM; first compound 10 µM; hits give low values
Task for the reader: assign each of the following compounds its reported viability, T/C.
Answers are plain numbers, in %.

Here are 3 compounds together with their reported answers.
>  <compound>
CCc1cc2c(N3CCc4c(cc(Cn5ccnc5)cc4-c4cn(C)nc4C(F)(F)F)C3=O)ccnc2c(OC)n1 + COC1C(OC(N)=O)C(O)C(Oc2ccc3c(O)c(NC(=O)c4ccc(O)c(CC=C(C)C)c4)c(=O)oc3c2C)OC1(C)C

>  <readingUnit>
%

>  <viability, T/C>
52.3

$$$$
>  <compound>
COc1cccc2c1C(=O)c1c(O)c3c(c(O)c1C2=O)CC(O)(C(=O)CO)CC3OC1CC(N)C(O)C(C)O1 (stereo not given) + Nc1ccc(C#CCN(C(=O)Cc2ncc(C(F)(F)F)cc2C(F)(F)F)c2ccc(F)cc2)nn1

>  <readingUnit>
%

>  <viability, T/C>
7.13

$$$$
>  <compound>
CCc1cc2c(N3CCc4c(cc(Cn5ccnc5)cc4-c4cn(C)nc4C(F)(F)F)C3=O)cc(C)nc2c(OC)n1 + COC1C(OC(N)=O)C(O)C(Oc2ccc3c(O)c(NC(=O)c4ccc(O)c(CC=C(C)C)c4)c(=O)oc3c2C)OC1(C)C

>  <readingUnit>
%

>  <viability, T/C>
39.1

$$$$

Required: viability, T/C, one value per compound below.
1. C#Cc1c(F)ccc2cc(O)cc(-c3ncc4c(N5CC6CCC(C5)N6)nc(OCC56CCCN5CC(F)C6)nc4c3F)c12 (stereo not given) + COC1C(OC(N)=O)C(O)C(Oc2ccc3c(O)c(NC(=O)c4ccc(O)c(CC=C(C)C)c4)c(=O)oc3c2C)OC1(C)C
2. CC1COCCN1c1cc(-c2ccnn2C)c2ccnc(-c3ccn[nH]3)c2n1 (stereo not given) + Nc1ccc(C#CCN(C(=O)Cc2ncc(C(F)(F)F)cc2C(F)(F)F)c2ccc(F)cc2)nn1

[out]
1: 103; 2: 69.6

---

assay: Anticancer human tumor 997537-175-T-J1-PDC cell line growth inhibition [POLQ]; conditions: 997537-175-T-J1-PDC complex spheroid viability, combination with POLQ inhibitors; second compound 1 µM; first compound 0.316 µM; hits give low values;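 note: luminescence signal used as a surrogate for viable cells; spheroids exposed to drugs for seven days before readout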
valueKind: viability, T/C

>  <molecule>
C=CCn1c(=O)c2cnc(Nc3ccc(N4CCN(C)CC4)cc3)nc2n1-c1cccc(C(C)(C)O)n1 + Nc1ccc(C#CCN(C(=O)Cc2ncc(C(F)(F)F)cc2C(F)(F)F)c2ccc(F)cc2)nn1

>  <result>
92.9%

$$$$
>  <molecule>
CC1COCCN1c1cc(C2(S(C)(=N)=O)CC2)nc(-c2ccnc3[nH]ccc23)n1 (stereo not given) + COC1C(OC(N)=O)C(O)C(Oc2ccc3c(O)c(NC(=O)c4ccc(O)c(CC=C(C)C)c4)c(=O)oc3c2C)OC1(C)C

>  <result>
102%

$$$$
>  <molecule>
COc1cc2cc(C(=O)CCC(=O)O)sc2cc1OC + Nc1ccc(C#CCN(C(=O)Cc2ncc(C(F)(F)F)cc2C(F)(F)F)c2ccc(F)cc2)nn1

>  <result>
82%

$$$$
>  <molecule>
CCc1cc2c(N3CCc4c(cc(Cn5ccnc5)cc4-c4cn(C)nc4C(F)(F)F)C3=O)cc(C)nc2c(OC)n1 + Cc1cccc(N(C)C(=O)C2C(O)CCN2c2nc(C)cc(C(F)(F)F)c2C#N)c1

>  <result>
85.9%

$$$$

[in] viability, T/C for CC(C)n1c(=O)n(C)c2cnc3cc(F)c(-c4ccc(OCCCN5CCCCC5)nc4)cc3c21 + Cc1cccc(N(C)C(=O)C2C(O)CCN2c2nc(C)cc(C(F)(F)F)c2C#N)c1 ?
[out] 92.5%
